This collection of values is drawn from PubChem BioAssay AID2314.

- procedureSummary: Cycloheximide Counterscreen for Small Molecule Inhibitors of Shiga Toxin; note: read at 38.3 µM for the half of the compounds with a filed dose
- studyConditions: cell reporter, cycloheximide protein synthesis inhibition counterscreen
About 37,000 (12%) of roughly 300,000 compounds were called active. Cut-off read from the data, not from the text of the source: active = max response mostly above about 13% (no sharp cut-off); inactive = mostly below about 14%. The entries come from a sample that favours actives as a whole.
Respond only with the outcome that fits, drawn from Y for active, N for inactive

*Q* # lookup: test call for `O=C(N/C(=C/c1ccc(Cl)cc1)C(=O)N1CCCCC1)c1ccco1`
*A* N

*Q* Repeat with `CCNC(=S)NNC(=O)Cc1ccccc1`
*A* N

*Q* Repeat with `CC1CCN(CCCn2c(SCC(=O)NC3CCCC3)nc3ccccc3c2=O)CC1`
*A* N

*Q* Repeat with `COC(=O)c1cc(S(=O)(=O)N2CCN(c3cc(C)ccc3C)CC2)c[nH]1`
*A* N
